- System: IL-1 production in whole blood
- MEASUREMENT_DESCRIPTION: Inhibition of IL-1 production in LPS-stimulated whole blood ("WB")
- Format: cell-based, human
- RUN_PARAMETERS: Homo sapiens
- Protocol: Inhibitors were serially diluted in DMSO from a 20 mM stock. At least 6 serial dilutions were prepared. Then 4× inhibitor stocks were prepared by adding 4 μl of an inhibitor dilution to 1 ml of RPMI1640 medium/10% fetal bovine serum. The 4× inhibitor stocks contained inhibitor at concentrations of 80 μM, 32 μM, 12.8 μM, 5.12 μM, 2.048 μM, 0.819 μM, 0.328 μM, 0.131 μM, 0.052 μM, 0.021 μM etc. The 4× inhibitor stocks were pre-warmed at 37° C. until use. […]
pIC50: −log10 of the molar value.
REPORTED_METRIC: pIC50

| COMPOUND | pIC50 |
| --- | --- |
| Cc1cc(F)ccc1-c1cccc(N(C(N)=O)c2cc3c(cc2Cl)OCO3)n1 [Compound 411] | ≤ 6.30 |
| O=C1NCN2N=C(Sc3ccc(F)cc3Cl)C=CC2=C1c1cc2c(cc1Cl)OCO2 [Compound 136] | ≤ 6.30 |
| O=C1C(c2c(Cl)cccc2Cl)=C2C=CC(Sc3ccc(F)cc3)=NN2CN1CO [Compound 138] | ≤ 6.30 |
| Cc1ccccc1Sc1ccc2c(-c3c(Cl)cccc3Cl)c(=O)ncn2n1 [Compound 23] | ≤ 6.30 |
| O=C(CCl)Nc1ccc(-c2c(=O)ncn3nc(Sc4ccc(F)cc4)ccc23)c(Cl)c1 [Compound 49] | ≤ 6.30 |
| O=C1NCN2N=C(Sc3ccccc3CNc3ncc[nH]3)C=CC2=C1c1c(Cl)cccc1Cl [Compound 123] | ≤ 6.30 |

Turning now to a further compound:
Consider the compound Cc1cccc(-c2cccc(C(C(N)=O)c3c(F)cccc3Cl)n2)c1 (stereo not drawn) [Compound 332] and give its recorded pIC50.
≤ 6.30

----------
- MEASURED_TARGET: activated p38 (Homo sapiens, UniProt Q16539)
- Sequence (Q16539 whole entry): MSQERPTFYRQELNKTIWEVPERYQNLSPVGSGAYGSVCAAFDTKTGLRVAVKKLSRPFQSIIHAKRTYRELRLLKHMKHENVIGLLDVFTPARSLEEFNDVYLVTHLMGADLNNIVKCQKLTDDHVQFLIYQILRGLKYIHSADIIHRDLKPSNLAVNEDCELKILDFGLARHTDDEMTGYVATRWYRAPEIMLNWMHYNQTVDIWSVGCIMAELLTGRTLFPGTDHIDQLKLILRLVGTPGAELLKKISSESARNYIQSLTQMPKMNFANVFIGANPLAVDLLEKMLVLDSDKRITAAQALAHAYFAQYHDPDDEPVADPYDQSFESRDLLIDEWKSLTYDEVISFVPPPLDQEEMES
- MEASUREMENT_DESCRIPTION: Inhibition of phosphorylation of EGF receptor peptide ("kinase")
- RUN_PARAMETERS: inhibition of phosphorylation of EGF receptor peptide by activated p38
pIC50: −log10 of the molar value.
REPORTED_METRIC: pIC50

Here is how some molecules turned out for pIC50.
| MOLECULE | RESULT |
| --- | --- |
| NC(=O)N(c1cccc(-c2ccccc2)n1)c1c(Cl)cccc1Cl [Compound 401] | ≥ 7.00 |
| NC(=O)C(c1cccc(-c2cccc(C=O)c2)n1)c1c(F)cccc1Cl (stereo not drawn) [Compound 342] | ≤ 6.00 |
| O=C1NCN2N=C(Sc3ccccc3CO)C=CC2=C1c1c(Cl)cccc1Cl [Compound 108] | ≥ 7.00 |
| NC(=O)C(c1cccc(-c2ccccc2CN2CCNCC2)n1)c1c(Cl)cccc1Cl (stereo not drawn) [Compound 304] | ≤ 6.00 |

Identify measured pIC50 obtained with activated p38 (Homo sapiens, UniProt Q16539) for COc1cccc(-c2cccc(C(C(N)=O)c3c(Cl)cccc3Cl)n2)c1 (stereo not drawn) [Compound 322] .
6.00 to 7.00

Identify measured pIC50 obtained with activated p38 (Homo sapiens, UniProt Q16539) for NC(=O)C(c1cccc(-c2ccccc2C=O)n1)c1c(F)cccc1Cl (stereo not drawn) [Compound 348] .
≤ 6.00

Identify measured pIC50 obtained with activated p38 (Homo sapiens, UniProt Q16539) for NC(=O)C(c1cccc(-c2ccccc2CO)n1)c1c(Cl)cccc1Cl (stereo not drawn) [Compound 302] .
≥ 7.00

Identify measured pIC50 obtained with activated p38 (Homo sapiens, UniProt Q16539) for NC(=O)C(c1cccc(-c2cccs2)n1)c1c(Cl)cccc1Cl (stereo not drawn) [Compound 317] .
≤ 6.00

Identify measured pIC50 obtained with activated p38 (Homo sapiens, UniProt Q16539) for NC(=O)C(c1cccc(-c2ccccc2)n1)c1cc(Cl)ccc1Cl (stereo not drawn) [Compound 349] .
≤ 6.00

Cited source for all entries: patent US7205305B2
